The measurements presented in this section are drawn from ChEMBL document CHEMBL3352529.

# MEASUREMENT_TARGET: Neuraminidase (Influenza A virus, UniProt A5Z252)
# ASSAY: Inhibition of Influenza A virus H1N1 Neuraminidase N1
READOUT_TYPE: pIC50
Numbers only, as −log10 of the molar value.

Return the recorded pIC50 value; entry: `CC(=O)N[C@H]1[C@H]([C@H](O)[C@H](O)CO)OC(C(=O)O)=C[C@@H]1NC(=N)NC(=O)CSc1cccc2ccccc12`
7.68

* * *

# MEASUREMENT_TARGET: Neuraminidase (Influenza A virus, UniProt A5Z252)
# ASSAY: Inhibition of Influenza A virus H3N2 Neuraminidase N1
READOUT_TYPE: IC50 (µM)
Give bare numbers, in µM.

Return the recorded IC50 value; entry: `CC(=O)N[C@H]1[C@H]([C@H](O)[C@H](O)CO)OC(C(=O)O)=C[C@@H]1NC(=N)NC(=O)CSc1cccc2ccccc12`
0.025
